# System: U2OS
# assay_text: Incucyte cell viability with U2OS; also: filed as whole numbers so only -1 and 0 and 1 occur
# Format: toxicity, cell-based
# experimental_setup: human, 18 h, 10 µM, compound concentration 10 uM, replicate number 2, timepoint 18 hours
measure: Growth Rate

Look over these answered cases.
compound | target_desc | Growth Rate
CC(C)(C(=O)O)c1ccc(C(O)CCCN2CCC(C(O)(c3ccccc3)c3ccccc3)CC2)cc1.Cl (configuration not stated) [FEXOFENADINE HYDROCHLORIDE] | U2OS | 0
NC(=O)c1cccc(-c2cc(Nc3ccc(OC(F)(F)F)cc3)ncn2)c1 | U2OS | 0
Cl.Oc1ccc2c3c1O[C@H]1c4[nH]c5c(c4C[C@@]4(O)[C@@H](C2)N(CC2CC2)CC[C@]314)C[C@@]1(O)[C@H]2Cc3ccc(O)c4c3[C@@]1(CCN2CC1CC1)[C@H]5O4 | U2OS | 0
C=C1/C(=C\C=C2/CCC[C@]3(C)[C@@H]([C@H](C)/C=C/[C@H](C)C(C)C)CC[C@@H]23)C[C@@H](O)C[C@@H]1O | U2OS | 0
Cc1nc(-c2ccc(C(F)(F)F)cc2)sc1COc1ccc([C@H](CC(=O)O)c2ccon2)cc1 | U2OS | 1

Task item: Give its Growth Rate value. Item: O=C(Nc1cccnn1)N1CC(C/C=C/c2cncc(Oc3ccc(C(F)(F)F)cn3)n2)C1
Reply: 0

Task item: Give its Growth Rate value. Item: CN1CCN(C(=O)C(C)(C)c2ccc(C(=O)Nc3cn4cc(-c5ccncc5)ccc4n3)cc2)CC1
Reply: 1

---

# Tested on: HEK-293T
# assay_text: Incucyte cell viability with HEK293T; also: filed as whole numbers so only -1 and 0 and 1 occur
# Format: toxicity, cell-based
# experimental_setup: human, 24 h, 10 µM, compound concentration 10 uM, replicate number 1, timepoint 24 hours
# Growth Rate per record follows
Form: value (number only, do not type unit).

Look over these answered cases.
molecule | Growth Rate
C=C(c1ccc(C(=O)O)cc1)c1cc2c(cc1C)C(C)(C)CCC2(C)C [BEXAROTENE] | 0
CC(C)c1onc(-c2c(Cl)cccc2Cl)c1COc1ccc(/C=C/c2cccc(C(=O)O)c2)c(Cl)c1 | 0
COc1cc(N2CCC(N3CCN(C)CC3)CC2)ccc1Nc1ncc(Cl)c(Nc2ccccc2P(C)(C)=O)n1 [BRIGATINIB] | 1
CC(C)(C(=O)O)c1ccc(C(O)CCCN2CCC(C(O)(c3ccccc3)c3ccccc3)CC2)cc1.Cl (configuration not stated) [FEXOFENADINE HYDROCHLORIDE] | 1
CCCNS(=O)(=O)Nc1ncnc(OCCOc2ncc(Br)cn2)c1-c1ccc(Br)cc1 | 0
Cl.O=C(c1ccc(Nc2nccc(-c3cc4ccccc4s3)n2)cc1)N1CCC(N2CCCC2)CC1 | 0

Task item: Give its Growth Rate value. Item: CCOC(=O)c1c(C)[nH]c2ccc3c(c12)CN1CCc2cc(OC)ccc2C1O3 (configuration not stated)
Reply: 0

Task item: Give its Growth Rate value. Item: COc1cc2ncnc(Nc3ccc(F)c(Cl)c3)c2cc1NC(=O)/C=C/CN1CCCCC1 [DACOMITINIB ANHYDROUS]
Reply: 0

Task item: Give its Growth Rate value. Item: CCOc1cc(C(=O)N2CCC(N3CCN(C)CC3)CC2)ccc1Nc1ncc2c(n1)N(C1CCCC1)c1ccccc1C(=O)N2C
Reply: 0

Task item: Give its Growth Rate value. Item: CCN(CC)S(=O)(=O)Nc1cccc(-c2ccc3c(NC(=O)C4CC4)n[nH]c3c2)c1
Reply: 0

Task item: Give its Growth Rate value. Item: CCc1cccc(CC)c1NC(=O)c1nn(C)c2c1CCc1cnc(Nc3ccc(C(=O)NC4CCN(C)CC4)cc3OC(F)(F)F)nc1-2
Reply: 0

Task item: Give its Growth Rate value. Item: O=C(Nc1cccnn1)N1CCC(=Cc2cccc(Oc3ccc(C(F)(F)F)cn3)c2)CC1
Reply: 0

Task item: Give its Growth Rate value. Item: Cc1cn(-c2cc(NC(=O)c3ccc(C)c(Nc4nccc(-c5cccnc5)n4)c3)cc(C(F)(F)F)c2)cn1 [NILOTINIB]
Reply: 0

Task item: Give its Growth Rate value. Item: CC(=O)N1CCC(c2ccc(C(=O)NC(=N)N)cc2C(F)(F)F)CC1 [BI 9627]
Reply: 1

Task item: Give its Growth Rate value. Item: FC(F)(F)c1cccc(-c2noc(-c3cc(-c4ccccc4)c(C(F)(F)F)s3)n2)c1
Reply: 0

Task item: Give its Growth Rate value. Item: Cc1cc(C)c(S(=O)(=O)N(Cc2ccc(-c3cccc(S(C)(=O)=O)c3)cc2)Cc2ccc(C(F)(F)F)o2)c(C)c1
Reply: 0

Task item: Give its Growth Rate value. Item: O=C(Nc1ccc(-n2nc(-c3cccnc3)cc2C(F)(F)F)cn1)c1ccc(-c2ccccc2)c(F)c1 [BI 2049]
Reply: 0

Each recorded value in this set is attributed to ChEMBL document CHEMBL4689842.
